assay: growth inhibitors of H69AR lung tumor, primary screen, human, duplicate replicates (AID 580); settings: H69AR lung tumor cells viability, ATP luminescence, 72 h; at 10 µM; stronger effect = lower value;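 note: 100% = mean luminescence of untreated wells and 0% = no signal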
Readings of viability for the listed compounds
// units = %; emit number, no label

Reference set (6 entries):
> print(dat)
                                   compound  measured.quantity  observed.result
1  Cc1cccc(NC2SC(=O)N(c3ccccc3)C2=O)c1 (stereo unspecified)          viability             87.6
2  Cc1ccc(S(=O)(=O)N2CCC(C(=O)N3CCC[C@H]3C(=O)NCc3ccccc3)CC2)cc1          viability             90.8
3  Cc1oc(-c2ccc(Cl)cc2)nc1CS(=O)CC(=O)NCCCN(C)C1CCCCC1 (stereo unspecified)          viability             87.1
4    Cn1cnc(S(=O)(=O)Nc2ccc(C(F)(F)F)cc2)c1          viability             91.7
5  CCOC(=O)C1=C(NC#N)OC(C)=C(C)C1c1ccc(O)cc1 (stereo unspecified)          viability             90.3
6  NC(=O)CSc1nnc(-c2cc3ccccc3o2)n1Cc1ccccc1          viability             90.3

Request the reported viability associated with COc1cccc(CNc2cccc3cccnc23)c1O
78.4

Request the reported viability associated with COc1ccccc1C(=O)n1nc(-c2ccc(Cl)cc2)nc1N
71.2

Request the reported viability associated with Cc1cccc(N2CCN(Cc3c(C)n(C)n(-c4ccccc4)c3=O)CC2)c1C
83.9

Request the reported viability associated with CC(=O)c1cn(CC(=O)NCc2ccc3c(c2)OCO3)c2ccccc12
99

Request the reported viability associated with N#CC1=C(N)SC(N)=C(C#N)C1c1ccc(C(F)(F)F)cc1
84.3

###

test: reversal of MRP1-mediated doxorubicin resistance, pilot screen, H69AR cells, doxorubicin co-treatment (AID 601); details: H69AR cells, CellTiter-Glo, 72 h; compound alone cytotoxicity; at 10 µM
Readings of viability for the listed molecules
// units = %; emit number, no label

Reference set (5 entries):
> print(dat)
                               entry.smiles  units.label  observed.result
1  CCn1c(=O)cc(SCC(=O)NCCN2CCN(Cc3ccccc3)CC2)c2ccccc21            %             84.4
2  Cc1cc(C)cc(NS(=O)(=O)c2ccc3[nH]cc(C(=O)NCc4ccco4)c(=O)c3c2)c1            %             41.1
3  COc1ccc(Br)cc1CNC(=O)CCc1nc(-c2ccc(C)cc2)no1            %             94.2
4  CCNc1nc(N2CCOCC2)nc(N(c2ccccc2)c2ccccc2)n1            %             84.2
5  CC(=O)Nc1c(O)nc(SCC(=O)Nc2nnc(CC(C)C)s2)[nH]c1=O            %             93.6

Request the reported viability associated with COCCn1c(-c2ccc(OC)c(OC)c2)nc2ccccc21
95.8

Request the reported viability associated with COC(=O)c1onc(C(=O)c2ccccc2)c1C(=O)OC
97.1

Request the reported viability associated with CNC(=O)CSc1nnc(-c2cc3c(C)nn(-c4ccccc4)c3s2)n1C
109

Request the reported viability associated with O=C(Cn1ccc2ccccc2c1=O)NCCC(=O)NC1CCN(Cc2ccccc2)CC1
100

Request the reported viability associated with CCC(=O)c1ccc(OC(=O)c2ccc(Br)o2)cc1
108

###

assay: reversal of MRP1-mediated doxorubicin resistance, pilot screen, H69AR cells, doxorubicin co-treatment (AID 601); details: H69AR cells + 2 uM doxorubicin, CellTiter-Glo, 72 h; at 10 µM; stronger effect = higher value
Readings of differential viability (reversal) for the listed molecules
// units = %; emit number, no label

Reference set (8 entries):
> print(dat)
                                   molecule                  measured.quantity  units.label  observed.result
1           Cc1ccc(Nc2nc(CSc3nnnn3C)cs2)cc1  differential viability (reversal)            %             25.7
2        O=C(NCc1ccco1)c1csc(Nc2ccccc2Cl)n1  differential viability (reversal)            %            -1.24
3  CC(C)C(=O)Nc1nnc(CCc2nnc(NC(=O)C(C)C)s2)s1  differential viability (reversal)            %             2.27
4          Cc1cccc(-c2nnn(CC/C(N)=N/O)n2)c1  differential viability (reversal)            %             -1.3
5  CCCN(CCC)CCNC(=O)C(NS(=O)(=O)c1ccc2c(c1)CCC(=O)N2)c1ccccc1 (centres undefined)  differential viability (reversal)            %             0.46
6  CCOC(=O)c1sc(N2C(=O)C(O)=C(C(=O)c3ccco3)C2c2ccccc2)nc1C (centres undefined)  differential viability (reversal)            %             1.33
7  CCOC(=O)c1ccc(NS(=O)(=O)c2cccc3nsnc23)cc1  differential viability (reversal)            %            -3.26
8      CCOCCCn1c(=S)[nH]c2cc3c(cc2c1=O)OCO3  differential viability (reversal)            %             4.13

Consider the record given below.
Request the reported differential viability (reversal) associated with COCCOC(=O)/C=C1/NC(=O)CS1
4.28

###

assay: SK-BR-3 cell growth inhibitors, pilot screen, 24 h, human (AID 572); details: SK-BR-3 viability, CellTiter-Glo luminescence, at 10 µM, stronger effect = lower value;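 note: compound exposure lasted between 18 and 24 h rather than exactly 24 h; 100% = carrier-treated control wells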
Readings of viability for the listed molecules
// units = %; emit number, no label

> print(dat)
                                   molecule  measured.quantity  observed.result
1  Cc1cc(OCC(=O)Nc2ccc3oc(-c4ccncc4)nc3c2)ccc1Cl          viability             92.5
2    COC(=O)c1cc(Br)c(=O)n(-c2ccc(OC)cc2)c1          viability             96.5
3  COCCCN1C(=O)C(O)=C(C(=O)c2ccco2)C1c1ccc(Br)cc1 (configuration not stated)          viability              102
4        O=C(O)c1cc(Cl)c(Cl)cc1C(=O)N1CCCC1          viability             97.5
5             CC(C)(C)NCc1cc2ccccc2[nH]c1=O          viability               90

Request the reported viability associated with Fc1ccc(NCc2nnc(SCc3nnc(-c4ccccc4)o3)n2CC2CCCO2)cc1 (configuration not stated)
96.5

Request the reported viability associated with CC1CN(C(=O)CSc2nnc(-c3ccncc3)n2-c2ccccc2)CC(C)O1 (configuration not stated)
101

Request the reported viability associated with CCOC(=O)CNC(=O)Nc1ccccc1C(=O)OC
116

Request the reported viability associated with CCCN1C2=C(C(=O)CCC2)C(c2ccc(O)c(Br)c2)C2=C1CCCC2=O
96

Request the reported viability associated with COc1ccc(-c2c(C(F)(F)F)oc3c(CN4CCN(C)CC4)c(O)ccc3c2=O)cc1
84.5

Request the reported viability associated with O=C(COC(=O)C1CCN(S(=O)(=O)c2cccs2)CC1)c1cc2ccccc2o1
104

Request the reported viability associated with O=c1c2c(nc3nc(COc4ccccc4)[nH]n13)CCC2
103

Request the reported viability associated with Cc1c(C(=O)N2CCCC2)sc(NC(=O)c2cccs2)c1C#N
106

Request the reported viability associated with COc1cccc(C(=O)NCc2nnc(SCC(=O)Nc3nccs3)n2-c2ccccc2)c1
101

Request the reported viability associated with O=C(COc1ccc(Cl)cc1)Nc1nc(-c2cccs2)cs1
96

###

assay: reversal of MRP1-mediated doxorubicin resistance, pilot screen, H69AR cells, doxorubicin co-treatment (AID 601); settings: H69AR cells, CellTiter-Glo, 72 h; compound alone cytotoxicity; at 10 µM
Readings of viability for the listed molecules
// units = %; emit number, no label

Request the reported viability associated with CC(=O)Nc1cccc(OCC(O)Cn2cnc3ccccc32)c1 (stereo unspecified)
97.9

Request the reported viability associated with CCC1SC2=NC(C)=C(C(=O)OC)C(c3ccc(C)cc3)N2C1=O (stereo unspecified)
99.6

Request the reported viability associated with COc1ccc(-c2ccc(Nc3ccc(S(=O)(=O)N4CCCC4)cc3)nn2)cc1OC
53.6

Request the reported viability associated with COC(=O)CC1SC(=O)NC1=O (stereo unspecified)
105

Request the reported viability associated with CCOC(=O)C1=C(C)OC(N)=C(C#N)C1c1ccoc1 (stereo unspecified)
95.3

Request the reported viability associated with OCCNc1nc2ccc(Cl)cc2[nH]1
107
